- System: human PBMCs
- experimental-protocol: Cytokine production by human PBMCs treated with ODNs, MagPix Multi-Plex
- Type: cell-based
- condition-set: low-dose ODN 0.1 μM, human PBMC, 24 hrs
Oligonucleotides are written 5' to 3', each unit as a sugar letter and its base; * is a phosphorothioate linkage, no mark a phosphodiester; rarer units and linkages stand in square brackets, end groups in braces. Plain capitals give the bases only. d = 2'-deoxy (DNA); m = 2'-O-methyl
property-label: IP10 (fold change)
The response must be a number in fold change with no trailing unit.

ODN7040C: 5′-CTGCCAAGTTCACCTGCA*C*C*-3′, PO; * = 2′OMe; control lacking CG-dinucleotide sequences (DNA dCdTdGdCdCdAdAdGdTdTdCdAdCdCdTdGdCmAmCmC) ... 1.1

Please turn your attention to the following entry.
API: value(readout= IP10, system= human PBMCs, query= ODN150: 5′-G*G*A*ACAGTTCGTCCAT*G*G*C-3′, PO except * = PS; antisense to p65 of NF-kB mRNA; tested clinically for ulcerative colitis (DNA dG*dG*dA*dAdCdAdGdTdTdCdGdTdCdCdAdT*dG*dG*dC) )
1.5

###

- Tested on: human PBMCs
- experimental-protocol: Cytokine production by human PBMCs treated with ODNs, MagPix Multi-Plex
- Assay type: cell-based
- condition-set: low-dose ODN 0.1 μM, human PBMC, 24 hrs
Oligonucleotides are written 5' to 3', each unit as a sugar letter and its base; * is a phosphorothioate linkage, no mark a phosphodiester; rarer units and linkages stand in square brackets, end groups in braces. Plain capitals give the bases only. d = 2'-deoxy (DNA); m = 2'-O-methyl
Entries and their IL-10 values follow.
The response must be a number in fold change with no trailing unit.

As a guide, the following entries are already answered.
ODN150: 5′-G*G*A*ACAGTTCGTCCAT*G*G*C-3′, PO except * = PS; antisense to p65 of NF-kB mRNA; tested clinically for ulcerative colitis (DNA dG*dG*dA*dAdCdAdGdTdTdCdGdTdCdCdAdT*dG*dG*dC) ... 0.9
ODN301C: 5′-GTAGCCCCATCACCCAGCAGC-3′, fully PS, GC-containing (DNA dG*dT*dA*dG*dC*dC*dC*dC*dA*dT*dC*dA*dC*dC*dC*dA*dG*dC*dA*dG*dC) ... 1
ODN302: 5′-GTCGCTCTTCTCCTCCGCCAG-3′, fully PS; scrambled (non-SMAD7 AON) control sequence with two CG sequences (DNA dG*dT*dC*dG*dC*dT*dC*dT*dT*dC*dT*dC*dC*dT*dC*dC*dG*dC*dC*dA*dG) ... 1.5

Which measured IL-10 value corresponds to ODN7040C: 5′-CTGCCAAGTTCACCTGCA*C*C*-3′, PO; * = 2′OMe; control lacking CG-dinucleotide sequences (DNA dCdTdGdCdCdAdAdGdTdTdCdAdCdCdTdGdCmAmCmC) ?
1

Continue with ODN150C: 5′-G*G*A*ACAGTTAGTCCATa*G*G*C-3′, PO except * = PS; control lacking CG-dinucleotide sequences (DNA GGAACAGTTAGTCCATGGC; listed as DNA, chemistry not fully specified)
1

###

- Test system: human PBMCs
- experimental-protocol: Cytokine production by human PBMCs treated with ODNs, MagPix Multi-Plex
- Format: cell-based
- condition-set: high-dose ODN 10 μM, human PBMC, 24 hrs
Oligonucleotides are written 5' to 3', each unit as a sugar letter and its base; * is a phosphorothioate linkage, no mark a phosphodiester; rarer units and linkages stand in square brackets, end groups in braces. Plain capitals give the bases only. d = 2'-deoxy (DNA); m = 2'-O-methyl
Entries and their IP10 values follow.
The response must be a number in fold change with no trailing unit.

ODN301C: 5′-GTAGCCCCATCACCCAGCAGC-3′, fully PS, GC-containing (DNA dG*dT*dA*dG*dC*dC*dC*dC*dA*dT*dC*dA*dC*dC*dC*dA*dG*dC*dA*dG*dC) ... 0.25
ODN302: 5′-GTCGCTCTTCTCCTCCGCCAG-3′, fully PS; scrambled (non-SMAD7 AON) control sequence with two CG sequences (DNA dG*dT*dC*dG*dC*dT*dC*dT*dT*dC*dT*dC*dC*dT*dC*dC*dG*dC*dC*dA*dG) ... 4.4
ODN7040C: 5′-CTGCCAAGTTCACCTGCA*C*C*-3′, PO; * = 2′OMe; control lacking CG-dinucleotide sequences (DNA dCdTdGdCdCdAdAdGdTdTdCdAdCdCdTdGdCmAmCmC) ... 1.4

Which measured IP10 value corresponds to ODN150C: 5′-G*G*A*ACAGTTAGTCCATa*G*G*C-3′, PO except * = PS; control lacking CG-dinucleotide sequences (DNA GGAACAGTTAGTCCATGGC; listed as DNA, chemistry not fully specified) ?
1.5

Continue with ODN150: 5′-G*G*A*ACAGTTCGTCCAT*G*G*C-3′, PO except * = PS; antisense to p65 of NF-kB mRNA; tested clinically for ulcerative colitis (DNA dG*dG*dA*dAdCdAdGdTdTdCdGdTdCdCdAdT*dG*dG*dC)
8.1
